- experimentalDetails: Half life i.v. dosing at 2 mg/kg of 50% PEG400/H 20, po dosing at 10 mg/kg
- Type: ADME, organism-based
- experimentalConditions: rat, in vivo
metricName: half-life (h)

• Cc1ccncc1-c1cc(F)cc(-n2nnc(-c3ccccn3)n2)c1 = 1.6

###

- tgt: Metabotropic glutamate receptor 5 (Rattus norvegicus)
- Sequence (P31424 whole entry): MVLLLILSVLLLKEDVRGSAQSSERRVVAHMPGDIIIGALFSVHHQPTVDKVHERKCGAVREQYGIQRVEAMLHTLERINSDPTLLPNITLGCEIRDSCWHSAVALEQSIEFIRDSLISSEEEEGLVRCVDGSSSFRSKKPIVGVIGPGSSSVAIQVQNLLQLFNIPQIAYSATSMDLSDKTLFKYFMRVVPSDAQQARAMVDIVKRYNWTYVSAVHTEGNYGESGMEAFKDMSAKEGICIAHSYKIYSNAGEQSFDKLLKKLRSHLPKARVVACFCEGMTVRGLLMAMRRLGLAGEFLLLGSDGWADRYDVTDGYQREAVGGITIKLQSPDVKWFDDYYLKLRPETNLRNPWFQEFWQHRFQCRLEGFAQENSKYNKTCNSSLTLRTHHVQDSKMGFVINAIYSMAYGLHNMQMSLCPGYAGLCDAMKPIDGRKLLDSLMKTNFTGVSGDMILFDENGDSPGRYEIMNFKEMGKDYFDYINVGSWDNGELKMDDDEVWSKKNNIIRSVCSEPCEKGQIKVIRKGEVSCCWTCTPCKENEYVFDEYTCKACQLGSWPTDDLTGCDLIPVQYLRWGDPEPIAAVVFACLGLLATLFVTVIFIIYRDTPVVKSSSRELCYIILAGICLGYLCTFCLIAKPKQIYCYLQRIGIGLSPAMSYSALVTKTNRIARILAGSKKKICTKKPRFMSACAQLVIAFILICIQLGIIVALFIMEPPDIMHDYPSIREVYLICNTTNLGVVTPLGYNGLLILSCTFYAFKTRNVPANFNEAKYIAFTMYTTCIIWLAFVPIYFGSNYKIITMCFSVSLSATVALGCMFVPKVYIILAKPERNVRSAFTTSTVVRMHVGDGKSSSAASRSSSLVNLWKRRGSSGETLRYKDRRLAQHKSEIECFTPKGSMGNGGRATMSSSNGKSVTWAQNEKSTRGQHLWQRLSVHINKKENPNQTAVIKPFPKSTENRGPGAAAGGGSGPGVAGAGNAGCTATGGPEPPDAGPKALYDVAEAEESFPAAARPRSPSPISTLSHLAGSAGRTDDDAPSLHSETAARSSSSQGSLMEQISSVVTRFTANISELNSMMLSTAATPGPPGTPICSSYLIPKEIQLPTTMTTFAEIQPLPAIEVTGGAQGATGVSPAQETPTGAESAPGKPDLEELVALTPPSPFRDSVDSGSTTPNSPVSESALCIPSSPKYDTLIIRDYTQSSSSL
- experimentalDetails: Antagonistic activity against Metabotropic glutamate receptor 5 in [Ca2+] flux assay using glutamate (10 uM) as agonist
metricName: IC50 (µM)

* Cc1ccc(-c2cc(F)cc(-n3nnc(-c4ccccn4)n3)c2)cn1 | 0.057
* Cc1ccncc1-c1cc(F)cc(-n2nnc(-c3ccccn3)n2)c1 | 0.005
* Cc1cccc(-c2cc(F)cc(-n3nnc(-c4ccccn4)n3)c2)c1 | 1.47
* N#Cc1cc(F)cc(-n2nnc(-c3ccccn3)n2)c1 | 0.004
* Fc1cc(-c2ccncc2)cc(-n2nnc(-c3ccccn3)n2)c1 | 0.956
* Cc1ccccc1-c1cc(F)cc(-n2nnc(-c3ccccn3)n2)c1 | 0.12
* Nc1cccnc1-c1cc(F)cc(-n2nnc(-c3ccccn3)n2)c1 | 0.019
* Cc1cccnc1-c1cc(F)cc(-n2nnc(-c3ccccn3)n2)c1 | 0.031
* Fc1cc(-c2cccnc2)cc(-n2nnc(-c3ccccn3)n2)c1 | 0.012
* Nc1ccncc1-c1cc(F)cc(-n2nnc(-c3ccccn3)n2)c1 | 0.108
* Cc1cnccc1-c1cc(F)cc(-n2nnc(-c3ccccn3)n2)c1 | 0.063
* N#Cc1cccc(-c2cc(F)cc(-n3nnc(-c4ccccn4)n3)c2)c1 | 0.253
* Cc1ncccc1-c1cc(F)cc(-n2nnc(-c3ccccn3)n2)c1 | 0.041
* N#Cc1ccccc1-c1cc(F)cc(-n2nnc(-c3ccccn3)n2)c1 | 0.006
* Cc1cncc(-c2cc(F)cc(-n3nnc(-c4ccccn4)n3)c2)c1 | 0.499
* Fc1cc(-c2ccccn2)cc(-n2nnc(-c3ccccn3)n2)c1 | 0.039
* Nc1ccccc1-c1cc(F)cc(-n2nnc(-c3ccccn3)n2)c1 | 0.008
* Fc1cc(-c2ccccc2)cc(-n2nnc(-c3ccccn3)n2)c1 | 0.247

###

- experimentalDetails: Plasma clearance i.v. dosing at 2 mg/kg of 50% PEG400/H 20, po dosing at 10 mg/kg
- Format: ADME, organism-based
- experimentalConditions: rat, iv, read-out: Clp
metricName: clearance

* Cc1ccncc1-c1cc(F)cc(-n2nnc(-c3ccccn3)n2)c1 | 39 mL/min/kg
* N#Cc1cc(F)cc(-n2nnc(-c3ccccn3)n2)c1 | 17 mL/min/kg

###

- tgt: UniProt:P31424
pKi: −log10 of the molar value.
Outcome label depends on pKi relative to 8: at/above gives met, below gives not met.

• Cc1cccnc1-c1cc(F)cc(-n2nnc(-c3ccccn3)n2)c1 = not met
• Fc1cc(-c2ccccc2)cc(-n2nnc(-c3ccccn3)n2)c1 = not met
• Fc1cc(-c2ccccn2)cc(-n2nnc(-c3ccccn3)n2)c1 = not met
• N#Cc1ccccc1-c1cc(F)cc(-n2nnc(-c3ccccn3)n2)c1 = met
• Cc1ccncc1-c1cc(F)cc(-n2nnc(-c3ccccn3)n2)c1 = met

###

- experimentalDetails: Oral bioavailability after i.v. dosing at 2 mg/kg of 50% PEG400/H 20, po dosing at 10 mg/kg
- Format: ADME, organism-based
- experimentalConditions: rat, in vivo
metricName: bioavailability (%)

- N#Cc1cc(F)cc(-n2nnc(-c3ccccn3)n2)c1: 26
